Target: Alpha-galactosidase (Coffea arabica, UniProt Q42656)
Sequence (Q42656 whole entry): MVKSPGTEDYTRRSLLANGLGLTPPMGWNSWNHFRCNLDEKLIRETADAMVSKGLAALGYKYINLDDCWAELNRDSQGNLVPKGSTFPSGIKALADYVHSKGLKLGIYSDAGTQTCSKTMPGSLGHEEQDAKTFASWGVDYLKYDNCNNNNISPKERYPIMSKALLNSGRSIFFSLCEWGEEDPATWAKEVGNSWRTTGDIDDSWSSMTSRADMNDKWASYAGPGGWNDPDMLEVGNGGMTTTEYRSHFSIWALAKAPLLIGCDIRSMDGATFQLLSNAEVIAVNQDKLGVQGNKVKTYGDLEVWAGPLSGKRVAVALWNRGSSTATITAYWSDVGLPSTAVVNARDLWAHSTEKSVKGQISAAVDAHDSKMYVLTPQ
quantity_kind: IC50

{"columns": ["compound", "assay_result"],
 "data": [
  ["CCCCCCCCOC1OCC(CNC(=N)N2C[C@@H](O)[C@H](O)[C@@H](O)C2)O1 (stereo partly specified)", "> 30 µM"]
]}

* * *

The following compounds are listed with their measured IC50 values.
Assay: Inhibition of Penicillium decumbens naringinase pre-incubated for 5 mins followed by p-nitrophenyl-beta-D-glucopyranoside substrate addition and measured after 30 mins by spectrophotometric assay

{"columns": ["compound", "IC50"],
 "data": [
  ["CCCCOC1OCC(CNC(=N)N2C[C@@H](O)[C@H](O)[C@@H](O)C2)O1 (stereo partly drawn)", "> 30 µM"],
  ["CCCCCCCCCN1C[C@H](O)[C@@H](O)[C@H](O)[C@H]1CO", "0.085 µM"],
  ["CCCCCCCCOC1OCC(CNC(=N)N2C[C@@H](O)[C@H](O)[C@@H](O)C2)O1 (stereo partly drawn)", "> 30 µM"]
]}
